Biological target: glycosylated human PAI-1 (active form) (human, UniProt P05121 24-402, glycosylated)
Sequence (P05121 24-402 limits assumed): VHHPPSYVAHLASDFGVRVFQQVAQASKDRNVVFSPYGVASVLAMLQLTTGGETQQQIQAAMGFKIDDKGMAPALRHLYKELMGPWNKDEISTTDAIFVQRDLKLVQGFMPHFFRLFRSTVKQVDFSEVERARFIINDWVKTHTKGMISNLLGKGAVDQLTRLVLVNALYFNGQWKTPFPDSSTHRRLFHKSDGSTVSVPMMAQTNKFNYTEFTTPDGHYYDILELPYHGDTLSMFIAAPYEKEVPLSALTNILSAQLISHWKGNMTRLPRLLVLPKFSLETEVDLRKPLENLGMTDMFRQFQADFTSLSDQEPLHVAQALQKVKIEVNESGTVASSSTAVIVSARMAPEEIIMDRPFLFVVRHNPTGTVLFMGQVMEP
Test: cell-based or functional assay

>  <BINDER>
A44 (antibody, mouse IgG1, V domains shown, mouse IgG1/kappa; also called mA44; A44 parental) VH: EMQLQESGPSLVKPSQTLSLTCSVTGDSMTNGYWNWIRKFPGNKLEYMGYITYSGSTYYNPSLKGRISITRNTSKNQYYLQLSSVTTEDTATYYCARWHYGSPYYFDYWGQGTTLTVSS VL: DIKMTQSPSSMYASLGERVTITCKASQDINSYLSWLQQKPGKSPKTLIYRANRSVDGVPSRFSGSGSGQDYSLTISSLEYEDMGIYYCLQYDEFPPTFGGGTKLEIKR

>  <UNITS_OF_MEASURE>
%

>  <Plasminogen Activation Y50%>
46

$$$$
>  <BINDER>
A44-hv1 (antibody, V domains shown, humanized A44, HEK293; also called LC1a x HC1a; variant 1) VH: EMTLKESGPTLVKPTQTLSLTCSVTGDSMTNGYWNWIRKFPGKALEYMGYITYSGSTYYNPSLKGRISITRNTSKNQYYLTLSSVTTVDTATYYCARWHYGSPYYFDYWGQGTTLTVSS VL: DIKMTQSPSSLSASVGDRVTITCKASQDINSYLSWLQQKPGKSPKTLIYRANRSVDGVPSRFSGSGSGQDYSLTISSLQPEDLGIYYCLQYDEFPPTFGGGTKLEIK

>  <UNITS_OF_MEASURE>
%

>  <Plasminogen Activation Y50%>
45

$$$$
>  <BINDER>
A44-hv4 (antibody, V domains shown, humanized A44, HEK293; constant regions as for A44-hv1; also called LC1a x HC2b; variant 4) VH: EMTLKESGPTLVKPTQTLSLTCSVTGDSMTQGYWNWIRKFPGKALEYMGYITYSGSTYYNPSLKGRISITRNTSKNQYYLTLSSVTTVDTATYYCARWHYGSPYYFDYWGQGTTLTVSS VL: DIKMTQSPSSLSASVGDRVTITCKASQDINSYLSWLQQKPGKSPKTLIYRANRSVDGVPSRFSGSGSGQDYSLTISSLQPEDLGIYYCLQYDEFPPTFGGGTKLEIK

>  <UNITS_OF_MEASURE>
%

>  <Plasminogen Activation Y50%>
26

$$$$
>  <BINDER>
A44-hv9 (antibody, V domains shown, humanized A44, HEK293; constant regions as for A44-hv1; also called LC5b x HC5b; variant 9) VH: QMQLQESGPGLVKPSETLSLTCTVSGDSMTNGYWNWIRQPPGKGLEYMGYITYSGSTYYNPSLKSRITISRDTSKNQYSLKLSSVTAADTAVYYCARWHYGSPYYFDYWGQGTLVTVSS VL: DIQMTQSPSSLSASVGDRVTITCKASQDINSYLSWLQQKPGKAPKTLIYRANRSVDGVPSRFSGSGSGQDYTFTISSLQPEDIATYYCLQYDEFPPTFGGGTKVEIK

>  <UNITS_OF_MEASURE>
%

>  <Plasminogen Activation Y50%>
46.5

$$$$
>  <BINDER>
A44-hv6 (antibody, V domains shown, humanized A44, HEK293; constant regions as for A44-hv1; also called LC3 x HC3; variant 6) VH: QMTLKESGPTLVKPTQTLSLTCSVSGDSMTNGYWNWIRQFPGKALEYMGYITYSGSTYYNPSLKGRITITRDTSKNQYYLTLSSVTTVDTATYYCARWHYGSPYYFDYWGQGTTLTVSS VL: DIKMTQSPSSLSASVGDRVTITCKASQDINSYLSWLQQKPGKSPKTLIYRANRSVDGVPSRFSGSGSGQDYSLTISSLQPEDLATYYCLQYDEFPPTFGGGTKLEIK

>  <UNITS_OF_MEASURE>
%

>  <Plasminogen Activation Y50%>
56.9

$$$$
>  <BINDER>
A44-hv8 (antibody, V domains shown) VH: QVQLQESGPGLVKPSETLSLTCTVSGDSMTNGYWNWIRQPPGKGLEYMGYITYSGSTYYNPSLKSRITISRNTSKNQYSLKLSSVTAADTAVYYCARWHYGSPYYFDYWGQGTLVTVSS VL: DIQMTQSPSSLSASVGDRVTITCKASQDINSYLSWLQQKPGKAPKLLIYRANRSVDGVPSRFSGSGSGTDYTFTISSLQPEDIATYYCLQYDEFPPTFGGGTKVEIK

>  <UNITS_OF_MEASURE>
%

>  <Plasminogen Activation Y50%>
11

$$$$
